The measured values listed here are drawn from patent US20030176314A1.

Molecular target: rat NPFF1 receptor (Rattus norvegicus)
Construct: expressed in transfected cells; host or cells: not given
Sequence (Q9EP86 whole entry): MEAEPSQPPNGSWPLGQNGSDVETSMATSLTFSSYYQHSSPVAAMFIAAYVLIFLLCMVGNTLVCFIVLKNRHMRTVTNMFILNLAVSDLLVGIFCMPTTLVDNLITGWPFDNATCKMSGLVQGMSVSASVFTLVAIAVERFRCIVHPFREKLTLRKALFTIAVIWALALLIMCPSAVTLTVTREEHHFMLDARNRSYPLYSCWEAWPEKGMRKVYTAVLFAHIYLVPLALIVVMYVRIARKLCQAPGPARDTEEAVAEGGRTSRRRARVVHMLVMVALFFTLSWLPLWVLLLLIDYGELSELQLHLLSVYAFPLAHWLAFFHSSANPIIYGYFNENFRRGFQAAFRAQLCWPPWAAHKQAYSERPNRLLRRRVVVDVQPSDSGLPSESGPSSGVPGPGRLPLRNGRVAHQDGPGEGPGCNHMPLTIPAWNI
Test: Functional assay (agonist potency, intrinsic activity) at cloned rat NPFF1 receptor
Type: cell-based
Settings: Table 4; percent of maximum response elicited by neuropeptide FF
For each of the compounds below, state its Functional Activity rNPFF1 I.A. %.
Answers are plain numbers, in %.

// known answers, use as guide
compound | Functional Activity rNPFF1 I.A. %, %
COc1ccc(S(=O)(=O)N[C@@H](CCCNC(=N)N)C(=O)N[C@@H](Cc2ccccc2)C(N)=O)cc1OC [Compound 1015B] | 84
N=C(N)NCCC[C@H](NS(=O)(=O)c1ccc([N+](=O)[O-])cc1[N+](=O)[O-])C(=O)N[C@@H](Cc1ccccc1)C(N)=O [Compound 2002B] | 34
N#Cc1ccccc1S(=O)(=O)N[C@@H](CCCNC(=N)N)C(=O)N[C@@H](Cc1ccccc1)C(N)=O [Compound 1027B] | 52
N=C(N)NCCC[C@H](NS(=O)(=O)c1ccccc1Br)C(=O)N[C@@H](Cc1ccccc1)C(N)=O [Compound 2001B] | 81
COc1ccc(Br)cc1S(=O)(=O)N[C@@H](CCCNC(=N)N)C(=O)N[C@@H](Cc1ccccc1)C(N)=O [Compound 1025B] | 78

Each of the following entries comes with a recorded value; kindly state Functional Activity rNPFF1 I.A. % for each.
1. COc1ccc(C)cc1S(=O)(=O)N[C@@H](CCCNC(=N)N)C(=O)N[C@@H](Cc1ccccc1)C(N)=O [Compound 2003B]
2. N=C(N)NCCC[C@H](NS(=O)(=O)c1c(F)cccc1F)C(=O)N[C@@H](Cc1ccccc1)C(N)=O [Compound 1004B]
3. N=C(N)NCCC[C@H](NS(=O)(=O)c1ccccc1[N+](=O)[O-])C(=O)N[C@@H](Cc1ccccc1)C(N)=O [Compound 1026B]
4. N=C(N)NCCC[C@H](NS(=O)(=O)c1ccc(Cl)c(Cl)c1)C(=O)N[C@@H](Cc1ccccc1)C(N)=O [Compound 1022B]

102
79
79
86

* * *

Target: rat NPFF2 receptor (Rattus norvegicus)
Construct: The full-length NPFF2 was amplified from rat spinal cord cDNA; expressed in transfected cells; host or cells: not given
Sequence (Q9EQD2 whole entry): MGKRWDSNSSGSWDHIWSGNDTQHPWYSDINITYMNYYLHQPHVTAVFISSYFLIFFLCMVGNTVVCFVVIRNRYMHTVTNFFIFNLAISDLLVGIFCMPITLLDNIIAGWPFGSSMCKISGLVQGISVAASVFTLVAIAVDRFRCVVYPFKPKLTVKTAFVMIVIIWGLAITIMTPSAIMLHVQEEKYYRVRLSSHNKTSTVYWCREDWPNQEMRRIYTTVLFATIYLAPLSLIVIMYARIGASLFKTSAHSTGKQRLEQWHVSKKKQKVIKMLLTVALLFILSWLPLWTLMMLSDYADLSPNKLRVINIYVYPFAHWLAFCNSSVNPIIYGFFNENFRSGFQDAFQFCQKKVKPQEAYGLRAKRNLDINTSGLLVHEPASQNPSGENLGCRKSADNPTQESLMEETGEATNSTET
Test: Functional assay (agonist potency, intrinsic activity) at cloned rat NPFF2 receptor
Format: cell-based
Settings: Table 5; read-out: Functional Activity rNPFF2 EC50
measuredProperty: pEC50
Give bare numbers, as −log10 of the molar value.

Form field: reported pEC50 of N=C(N)NCCC[C@@H](NS(=O)(=O)c1cccc2ccccc12)C(=O)N[C@@H](Cc1ccccc1)C(N)=O [Compound 3001B]
6.42

* * *

Target: human α2B adrenergic receptor (Homo sapiens, UniProt P18089)
Sequence (P18089 1-450): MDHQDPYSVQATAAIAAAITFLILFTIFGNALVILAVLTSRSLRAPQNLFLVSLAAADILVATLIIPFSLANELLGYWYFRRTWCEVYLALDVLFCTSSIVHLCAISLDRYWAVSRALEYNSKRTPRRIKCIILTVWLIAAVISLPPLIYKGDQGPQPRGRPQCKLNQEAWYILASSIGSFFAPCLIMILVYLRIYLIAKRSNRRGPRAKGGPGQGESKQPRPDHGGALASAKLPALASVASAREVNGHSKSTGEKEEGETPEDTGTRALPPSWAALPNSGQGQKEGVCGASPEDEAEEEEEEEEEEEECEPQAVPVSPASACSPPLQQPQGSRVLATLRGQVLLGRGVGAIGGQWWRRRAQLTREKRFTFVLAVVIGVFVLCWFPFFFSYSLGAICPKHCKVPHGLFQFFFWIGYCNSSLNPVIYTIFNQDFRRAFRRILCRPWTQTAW
For each of the molecules below, state its pKi.
One number for each entry, as −log10 of the molar value.

molecule | measuredProperty | quantitativeResult
CCc1ccc2nc(NC(=N)N)nc(C)c2c1 [Compound 1003A] | pKi | 4.50
Cc1cc(NC(=N)N)nc2ccc(Cl)cc12 [Compound 4005A] | pKi | 5.43
CCCCCc1ccc2nc(NC(=N)N)nc(C)c2c1 [Compound 2001A] | pKi | 5.13
CCC(C)c1ccc2nc(NC(=N)N)nc(C)c2c1 (stereo not drawn) [Compound 2002A] | pKi | 4.89
CCc1ccc2nc(NC(=N)N)cc(C)c2c1 [Compound 4002A] | pKi | 4.98

Pending molecule:
Form field: reported pKi of CCc1ccc2c(C)nc(NC(=N)N)nc2c1 [Compound 1020A]
4.68
